test: NCI Yeast Anticancer Drug Screen. Data for the rad50 strain (AID 155);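 further: 0% = growth of vehicle-only cultures of the same strain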; conditions: S. cerevisiae rad50 strain growth inhibition; at 50.0 µM; hits give high values
The panel holds about 79,000 compounds, 15% with a hit somewhere; the sample as a whole holds those more often.
What growth inhibition was measured for each of the following?
Please reply with the bare figure in % and do not write the unit itself.

input: Fill in: growth inhibition of CCCOC(=O)C(OC(=O)c1ccccc1)C(OC(=O)c1ccccc1)C(=O)OCCC (stereo not given) is ___
output: -0.65

input: Look at this molecule and give its reported growth inhibition. COC(=O)C1=CC(O)CCC1c1ccc(OC)cc1 (stereo not given)
output: -6.2

input: Look up growth inhibition for this molecule: CC12CC3(Nc4ccccc4C3(C)O)OC1(C)c1ccccc1N2 (stereo not given)
output: 1.1

input: Would you kindly share the measured growth inhibition for COC(=O)c1ccncc1 ?
output: -2.6

input: Value lookup for growth inhibition; key = CCn1c(S)c(N=NC(=S)c2ccc3ccccc3n2)c2ccccc21
output: 46

input: Request the reported growth inhibition associated with O=C(O)c1ccc2c(c1)S(=O)(=O)NC2=O
output: 1.15

input: What value of growth inhibition has been reported for the following molecule? Oc1cc(-n2cccn2)c(O)cc1-n1cccn1
output: 23.1

input: Name the reported growth inhibition value associated with the molecule CNC1C(O)C(OC2C(N)CC(N)C(OC3OC(CN)C(O)C(O)C3O)C2O)OCC1(C)O (stereo not given)
output: 27.1

input: For the molecule CN(C(=O)c1ccccc1)C1CCCC(=O)CC1 (stereo not given) , what growth inhibition is on record?
output: -2.35

input: What does the record list as growth inhibition for CCc1cc(CC)n2cnnc2n1 ?
output: 16.7

input: Please give the measured growth inhibition for this molecule: CCSc1ccc(N=[N+]([O-])c2ccc(SCC)c(Cl)c2)cc1Cl
output: -5.6

input: So what's the measured growth inhibition for this one? NC(=O)c1nnn(-c2ccccc2)n1
output: -9.75

input: What growth inhibition value was documented for this molecule, Cn1c(=O)c2c(nc(NCCO)n2Cc2ccccc2)n(C)c1=O ?
output: 20.1

input: growth inhibition lookup needed for CN(C)Cc1cn(C[Si](C)(C)C)c2ccccc12 , thanks.
output: 18.6

input: So what does the record say about growth inhibition for COc1ccc(/C=C/C(=O)c2sc(NC(=S)NC(=O)c3ccccc3F)nc2C)cc1OC ?
output: 21.1

input: May I ask what growth inhibition has been recorded for O=C1CSC(c2ccccc2)N1O (stereo not given) ?
output: -11.4

input: Sample CC(=O)N(C)O — what was its growth inhibition?
output: 21.2

input: Need growth inhibition of OC(CC(O)(C(F)(F)F)C(F)(F)F)c1cccs1 (stereo not given) , thanks.
output: -1.95

input: Can you share its growth inhibition? I mean this molecule: CC(C)OC(=O)N1C(=O)C2C3CCC(O3)C2C1=O (stereo not given)
output: 9.2

input: What does the record list as growth inhibition for N[C@@H](CCC(=O)NC(Cc1ccccc1)C(=O)NCP(=O)(O)O)C(=O)O (stereo not given in full) ?
output: -60.9

input: Need growth inhibition of C/C(N=NS(=O)(=O)c1ccc(C)cc1)=C1\C=CC=CN1O , thanks.
output: -15.9

input: // lookup growth inhibition for CC(NC(=O)NCCCl)C1CC1 (stereo not given)
output: -2.1

input: Given CCC(N)(C(=O)O)C(C)C (stereo not given) , state its recorded growth inhibition.
output: -25.7

input: Form field: reported growth inhibition of [Cl][Sn]1([Cl])[CH2]CCCCCCCCCC[CH2][Sn]([Cl])([Cl])[CH2]CCCCCCCCCC[CH2]1
output: -12.9

input: growth inhibition for O=C(O)CCc1nc2c(n1Cc1ccccc1)C(=O)c1ccccc1C2=O ?
output: 28.4
